Entry source: ChEMBL document CHEMBL1123274

Exercise: for every item that follows, state its recorded IC50.
- tested.target: Steroid 5-alpha-reductase (Rattus norvegicus, UniProt P24008+P31214)
- assay: In vitro inhibitory activity against rat prostatic steroid 5-alpha-reductase
- Format: protein assay
Give your result in nM as a bare value.

Noted for `CCN(CC)C(=O)[C@H]1CC[C@H]2[C@@H]3CC[C@H]4N(C)/C(=N/O)CC[C@]4(C)[C@H]3CC[C@]12C` : its IC50 reads 100

Noted for CC(O)[C@@]1(O)CC[C@H]2[C@@H]3CCC4N(C)C(=O)CC[C@]4(C)[C@H]3CC[C@@]21C (some centres not stated) : its IC50 reads 7.6

Noted for CCC(C)C(=O)[C@H]1CC[C@H]2[C@@H]3CCC4N(C)C(=O)CC[C@]4(C)[C@H]3CC[C@]12C (some centres not stated) : its IC50 reads 1.9

Noted for `CCN(CC)C(=O)[C@H]1CCC[C@H]2[C@@H]3CC[C@H]4N(C)C(=O)NC[C@]4(C)[C@H]3CC[C@]12C` : its IC50 reads 500

Noted for CC(CO)[C@H]1CC[C@H]2[C@@H]3CCC4N(C)C(=O)CC[C@]4(C)[C@H]3CC[C@]12C (some centres not stated) : its IC50 reads 3.8

Noted for CCC(C)C(=O)[C@H]1CC[C@H]2[C@@H]3CCC4N(C)C(=O)C=C[C@]4(C)[C@H]3CC[C@]12C (some centres not stated) : its IC50 reads 120

Noted for CCN(CC)C(=O)C[C@H]1CC[C@H]2[C@@H]3CCC4N(C)C(=O)CC[C@]4(C)[C@H]3CC[C@]12C (some centres not stated) : its IC50 reads 7.9

Noted for `CCN(CC)C(=O)[C@H]1CC[C@H]2[C@@H]3CC[C@H]4NC(=O)C=C[C@]4(C)[C@H]3CC[C@]12C` : its IC50 reads 140

Noted for CCN(CC)C(=O)CCC(C)[C@H]1CC[C@H]2[C@@H]3CCC4N(C)C(=O)CC[C@]4(C)[C@H]3CC[C@]12C (some centres not stated) : its IC50 reads 3.4

Noted for CN1C(=O)CC[C@@]2(C)C1CC[C@H]1[C@@H]3CC[C@H](C(N)=O)[C@@]3(C)CC[C@@H]12 (some centres not stated) : its IC50 reads 17

Noted for CC(C)N(C(=O)[C@H]1CC[C@H]2[C@@H]3CCC4NC(=O)C=C[C@]4(C)[C@H]3CC[C@]12C)C(C)C (some centres not stated) : its IC50 reads 79

Noted for `CNC(=O)[C@H]1CC[C@H]2[C@@H]3CC=C4N(C)C(=O)CC[C@]4(C)[C@H]3CC[C@]12C` : its IC50 reads 140

Noted for `CCN(CC)C(=O)[C@H]1CC[C@H]2[C@@H]3CC[C@H]4N(NC=O)C(=O)CC[C@]4(C)[C@H]3CC[C@]12C` : its IC50 reads 400

Noted for CC(=O)N[C@@H]1CC[C@H]2[C@@H]3CCC4N(C)C(=O)CC[C@]4(C)[C@H]3CC[C@]12C (some centres not stated) : its IC50 reads 58

Noted for CCCCCCCCCCCCCCCCCCNC(=O)[C@H]1CC[C@H]2[C@@H]3CCC4N(C)C(=O)CC[C@]4(C)[C@H]3CC[C@]12C (some centres not stated) : its IC50 reads 20

Noted for CC(C#N)[C@H]1CC[C@H]2[C@@H]3CCC4N(C)C(=O)CC[C@]4(C)[C@H]3CC[C@]12C (some centres not stated) : its IC50 reads 7.6

Noted for `CCOC(=O)C[C@H]1CC[C@H]2[C@@H]3CC[C@H]4N(C)C(=O)CC[C@]4(C)[C@H]3CC[C@]12C` : its IC50 reads 6.8

Noted for CC(C(=O)[O-])[C@H]1CC[C@H]2[C@@H]3CC=C4N(C)C(=O)CC[C@]4(C)[C@H]3CC[C@]12C.[Na+] (some centres not stated) : its IC50 reads 13

Noted for `CCN(CC)C(=O)[C@H]1CC[C@H]2[C@@H]3CC[C@H]4N(C)C(=O)[C@@H](C)C[C@]4(C)[C@H]3CC[C@]12C` : its IC50 reads 20

Noted for CC(=O)[C@H]1[C@@H](C)C[C@H]2[C@@H]3CCC4N(C)C(=O)CC[C@]4(C)[C@H]3CC[C@@]21C (some centres not stated) : its IC50 reads 16

Noted for C[C@H]1CC2N(C)C(=O)CC[C@]2(C)[C@H]2CC[C@@]3(C)[C@@H](CC[C@@]34CCCO4)[C@H]12 (some centres not stated) : its IC50 reads 4.6
